Please go through the items and note down their TP.
Organism: Rattus norvegicus
Assay: Open TG-GATES - Regimen: Single
Type: toxicity, organism-based, Sprague-Dawley
Design: regimen Single, gender Male, age 6 weeks
Conditions: in vivo, po, 1000 mg/kg, 3 h, tissue Plasma, route gavage, dose level High
// note: answer is a bare numeric in g/dL

Form: molecule = COc1ccc2[nH]c([S+]([O-])Cc3ncc(C)c(OC)c3C)nc2c1 (stereo not given) ; TP = 5.4

Form: molecule = NC(N)=Nc1nc(CSCCC(N)=NS(N)(=O)=O)cs1 ; TP = 5.3

Form: molecule = CCOC(=O)CCC(=O)O[C@H]1[C@H](O[C@@H]2[C@@H](C)[C@H](O[C@H]3C[C@@](C)(OC)[C@@H](O)[C@H](C)O3)[C@@H](C)C(=O)O[C@H](CC)[C@@](C)(O)[C@H](O)[C@@H](C)C(=O)[C@H](C)C[C@@]2(C)O)O[C@H](C)C[C@@H]1N(C)C [ERYTHROMYCIN ETHYLSUCCINATE] ; TP = 5.4

Form: molecule = COC1=CC(=O)C[C@@H](C)[C@]12Oc1c(Cl)c(OC)cc(OC)c1C2=O ; TP = 5.2

Form: molecule = CC(C)OC(=O)C(C)(C)Oc1ccc(C(=O)c2ccc(Cl)cc2)cc1 [FENOFIBRATE] ; TP = 5.3
